- ASSAY NOTES: Population pharmacokinetic analysis in healthy subjects after intravenous administration of nintedanib (one-compartment model)
- Type: in vivo, human
- EXPERIMENTAL CONTEXT: human, plasma; healthy subjects (n=23), single intravenous nintedanib infusion 1, 3 or 6 mg, data of absolute bioavailability study [7]; estimate (RSE%); read-out: CL, total body clearance for nintedanib (converted)
REPORTED METRIC: clearance (mL/min)
Answers are plain numbers, in mL/min.

If you can, please state the reported clearance value of COC(=O)c1ccc2c(c1)NC(=O)/C2=C(\Nc1ccc(N(C)C(=O)CN2CCN(C)CC2)cc1)c1ccccc1 [nintedanib] .
2570

* * *

- ASSAY NOTES: Population pharmacokinetic analysis in healthy subjects after intravenous administration of nintedanib (one-compartment model)
- Format: in vivo, human
- EXPERIMENTAL CONTEXT: human, plasma; healthy subjects, intravenous nintedanib; estimate (RSE%); read-out: V2, volume of distribution for nintedanib
REPORTED METRIC: Vd (L)
Answers are plain numbers, in L.

Param item = COC(=O)c1ccc2c(c1)NC(=O)/C2=C(\Nc1ccc(N(C)C(=O)CN2CCN(C)CC2)cc1)c1ccccc1 [nintedanib] ; retrieve measured Vd.
60.9
